- Tested on: HCT116 WT cells
- TEST_SUMMARY: HCT116 proliferation assay, WT cells (CellTiter-Glo, 6 days)
- Type: cell-based
- TEST_CONTEXT: Homo sapiens, HCT-116, 144 h, read-out: Prolif_HCT116-WT IC50
pIC50: −log10 of the molar value.
REPORTED_ENDPOINT: pIC50

                                   molecule  readout_number
0  Cc1cc2cc(C(=O)N(Cc3ccc(C(F)(F)F)cn3)[C@@H]3CCOc4ccc(F)nc43)ccc2nc1N (single isomer, unassigned)            6.63
1  Cc1cc2cc(C(=O)N(Cc3ccc(C#N)cn3)Cc3ncccc3F)ccc2nc1N            5.06
2  Cc1cc2cc(C(=O)N(Cc3ccc(C(F)(F)F)nn3)[C@@H]3CCC[C@H]3O)ccc2nc1N            5.15
3  Cc1cc2cc(C(=O)N(Cc3ccc(C(F)(F)F)cn3)[C@@H](C)c3ccc(F)cn3)ccc2nc1N (single isomer, unassigned)            5.33
4  CC(C)CN(Cc1ccc(C(F)(F)F)cn1)C(=O)c1ccc2nc(N)c(-c3ccccc3)cc2c1            5.50
5  C[C@H](c1ncccc1F)N(Cc1ccc(C(F)(F)F)nn1)C(=O)c1cnc2nc(N)c(Br)cc2c1            5.10

1: CC(c1cscn1)N(Cc1ccc(C(F)(F)F)nn1)C(=O)c1cnc2nc(N)c(Br)cc2c1 (stereo not drawn)
2: C[C@H](c1ncccn1)N(Cc1ccc(C(F)(F)F)cn1)C(=O)c1cnc2nc(N)c(I)cc2c1
3: C[C@H](c1nccs1)N(Cc1ccc(Br)nn1)C(=O)c1ccc2nc(N)c(Br)cc2c1
4: Cc1nc2c(s1)C(N(Cc1ccc(C(F)(F)F)cn1)C(=O)c1ccc3nc(N)c(C)cc3c1)CCC2 (stereo not drawn)
Rank entries according to their pIC50, from the largest number down. Arrange the labels as the request states and list them.
4, 2, 3, 1

====

- Test system: HCT116 MTAP null cells
- TEST_SUMMARY: HCT116 proliferation assay, MTAP null cells (CellTiter-Glo, 6 days)
- Format: cell-based
- TEST_CONTEXT: read-out: Protif_ HCT116-MTAP null IC50
- Description: HCT116 MTAP null and WT cells were seeded in 96-well tissue culture plates in RPMI 1640 media + 10% fetal bovine serum. Plates were incubated overnight at 37° C. and 5% CO2. […] Effects on cell viability were measured with the CellTiter-Glo® Luminescent Cell Viability Assay (Promega) per manufacturer’s recommendation. Assay plates were read on an EnVision™ Multilabel Reader using the Ultra-Sensitive luminescence module.
REPORTED_ENDPOINT: IC50 (µM)

In [3]: df
Out[3]:
                                   molecule             target_desc  reported_endpoint  readout_number
0  Cc1cc2cc(C(=O)N(Cc3ccc(C(F)(F)F)cc3)Cc3c(F)cncc3F)ccc2nc1N [Example 685]  HCT116 MTAP null cells               IC50           0.051

I: CO[C@@H]1COCC[C@H]1N(Cc1ccc(C(F)(F)F)cn1)C(=O)c1ccc2nc(N)c(C)cc2c1 (mixture of isomers) [Example 748]
II: Cc1cc2cc(C(=O)N(Cc3ccc(C(F)(F)F)cn3)Cc3ccnc4[nH]ccc34)cnc2nc1N [Example 368]
III: Cc1cc2cc(C(=O)N(Cc3ccc4[nH]ncc4c3)Cc3ccc(C(F)(F)F)cn3)ccc2nc1N [Example 618]
IV: Cc1cc2cc(C(=O)N(Cc3ccc(C(F)(F)F)cn3)Cc3ccnc4[nH]ccc34)cnc2nc1N [Example 635]
V: Cc1cc2cc(C(=O)N(Cc3ccc4[nH]ncc4c3)Cc3ccc(C(F)(F)F)cn3)ccc2nc1N [Example 369]
Sort low-to-high on IC50, please. Answer by listing the labels in the order asked for.
IV, III, I, V, II
(IV: 0.018 µM, III: 0.055 µM, I: 0.084 µM, V: 0.138 µM, II: 0.411 µM)

====

- Tested on: HCT116 WT cells
- TEST_SUMMARY: HCT116 proliferation assay, WT cells (CellTiter-Glo, 6 days)
- Assay type: cell-based
- TEST_CONTEXT: Homo sapiens, HCT-116, 144 h, read-out: Prolif_HCT116-WT IC50
pIC50: −log10 of the molar value.
REPORTED_ENDPOINT: pIC50

>>> df
                                   compound      target_desc  readout_number
0  CC[C@H](c1ncccn1)N(Cc1ccc(C#N)cn1)C(=O)c1ccc2nc(N)c(C)cc2c1 (single isomer, unassigned)  HCT116 WT cells            5.27
1  CCOc1ccc(CN(C(=O)c2cnc3nc(N)c(I)cc3c2)[C@H](C)c2ncccn2)nn1  HCT116 WT cells            4.76
2  Cc1cc2cc(C(=O)N(Cc3ccc(OC4CC4)cn3)[C@H](C)c3ncccn3)ccc2nc1N  HCT116 WT cells            5.82
3  [2H]C([2H])([2H])c1cc2cc(C(=O)N(Cc3ccc(C(F)(F)F)cn3)[C@H](C)c3ncccn3)ccc2nc1N  HCT116 WT cells            6.06
4  Cc1cc2cc(C(=O)N(Cc3ccc(S(=O)(=O)C4CC4)cn3)[C@H](C)c3ncccc3F)ccc2nc1N  HCT116 WT cells            5.20
5  Cc1cc2cc(C(=O)N(Cc3ccc(C(F)(F)F)cn3)[C@@H]3COCC[C@H]3F)ccc2nc1N (mixture of isomers)  HCT116 WT cells            5.67
6  C[C@H](c1ncccn1)N(Cc1ccc(C(F)(F)F)cn1)C(=O)c1ccc2nc(N)c(Cl)cc2c1  HCT116 WT cells            5.21
7  C[C@H](c1ncccn1)N(Cc1ccc(Br)nn1)C(=O)c1ccc2nc(N)c(I)cc2c1  HCT116 WT cells            5.45

1: Cc1cc(CN(Cc2ccc(C(F)(F)F)cn2)C(=O)c2cc3cc(C)c(N)nc3cc2F)no1
2: COC[C@@H](c1ccccn1)N(Cc1ccc(C(F)(F)F)cn1)C(=O)c1ccc2nc(N)c(C)cc2c1 (single isomer, unassigned)
Kindly identify the item with the lower pIC50 figure among these two: 1 and 2 Let me know the label of the one you choose.
1
(1: 4.99, 2: 5.37)

====

- System: HCT116 MTAP null cells
- TEST_SUMMARY: HCT116 proliferation assay, MTAP null cells (CellTiter-Glo, 6 days)
- Assay type: cell-based
- TEST_CONTEXT: HCT116-MTAP null, 144 h, read-out: Protif_ HCT116-MTAP null IC50
REPORTED_ENDPOINT: IC50 (nM)

                                   compound             target_desc  readout_number
0  CCOC(C)CN(Cc1ccc(C(F)(F)F)cn1)C(=O)c1ccc2nc(N)c(C)cc2c1 (stereo not drawn)  HCT116 MTAP null cells             290
1  Cc1cc2cc(C(=O)N(Cc3ccc(C(F)F)cn3)[C@@H]3CCC[C@H]3O)ccc2nc1N  HCT116 MTAP null cells             227
2  Cc1cc2cc(C(=O)N(Cc3ccc(N4CCCCC4)cc3)Cc3ccnc4[nH]ccc34)ccc2nc1N  HCT116 MTAP null cells             165
3  Cc1cc2cc(C(=O)N(Cc3ccc(C(F)(F)F)cn3)CC3CCC3)ccc2nc1N  HCT116 MTAP null cells             455
4  Cc1cc2cc(C(=O)N(Cc3ccc(C(F)(F)F)cn3)[C@H]3CCCc4nccnc43)ccc2nc1N (single isomer, unassigned)  HCT116 MTAP null cells             868
5  CC(c1ncccc1F)N(Cc1ccc(N2CCOCC2)nn1)C(=O)c1cnc2nc(N)c(Br)cc2c1 (stereo in doubt)  HCT116 MTAP null cells             507
6  COc1cccc2c1OCCC2N(Cc1ccc(C(F)(F)F)cn1)C(=O)c1ccc2nc(N)c(C)cc2c1 (stereo not drawn)  HCT116 MTAP null cells              33
7  [2H]C([2H])([2H])Oc1ccc(CN(C(=O)c2ccc3nc(N)c(C)cc3c2)[C@H](C)c2ncccn2)nc1 (single isomer, unassigned)  HCT116 MTAP null cells             146

P: Cc1cc2cc(C(=O)N(Cc3ccc(C(F)(F)F)cn3)[C@@H]3CCCn4ncnc43)ccc2nc1N (single isomer, unassigned)
Q: C[C@H](c1ncccn1)N(Cc1ccc(C(F)(F)F)cn1)C(=O)c1cc2cc(Cl)c(N)nc2cn1
R: C[C@H](c1ncccn1)N(Cc1ccc(C#N)cn1)C(=O)c1cnc2nc(N)c(Br)cc2c1
S: Cc1cc2cc(C(=O)N(Cc3ccc(C(F)(F)F)cn3)[C@@H]3CCCc4cccnc43)ccc2nc1N
Sort ascending by IC50. When ranking, write the labels in the order the request describes.
S, P, Q, R

P: Cc1cc2cc(C(=O)N(Cc3ccc(C(F)(F)F)cn3)Cc3cnccn3)ccc2nc1N
Q: Cc1cc2c(nc1N)CCC(C(=O)N(Cc1ccc(C(F)(F)F)cn1)Cc1ccnc3[nH]ccc13)C2 (stereo not drawn)
R: CCOc1ccc(CN(C(=O)c2ccc3nc(N)c(C)cc3c2)[C@H](C)c2ncccn2)nc1
Output the entries ranked by IC50 from maximum down to minimum. Write the labels out in the order the request specifies.
Q, P, R
